target-or-system: PfMTIPΔ60 (Plasmodium falciparum myosin A tail domain interacting protein, residues 61-204) (Plasmodium falciparum, UniProt Q8I4W8)
Construct: residues 61-204 (N- and C-terminal domains, disordered N-terminal extension removed), N-terminal His tag kept, recombinant as previously described; 15N-labelled for NMR; free of myoA tail
Sequence (Q8I4W8 entry or part of it, stated change not applied): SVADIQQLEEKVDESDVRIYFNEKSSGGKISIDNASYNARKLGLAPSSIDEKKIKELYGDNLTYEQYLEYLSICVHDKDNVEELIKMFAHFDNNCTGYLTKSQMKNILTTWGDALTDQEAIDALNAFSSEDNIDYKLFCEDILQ
test-name: 1H, […]-HSQC NMR titration

| compound | Kd, mM |
| --- | --- |
| CN(C)Cc1ccc(CSCCN)o1 [compound 8, fragment 8] | 22.5 |
